B1: library; a variant is named by its letters at N, in order (parent)
chain: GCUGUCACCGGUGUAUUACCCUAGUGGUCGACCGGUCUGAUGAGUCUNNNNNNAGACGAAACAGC

- Variants of: B1
- PROTOCOL: normalized RNA/DNA level without ligand (relative to sTRSVctl = 100) (log10 (% of sTRSVctl)); ligand: hypoxanthine (xanthine aptamer); higher = less ribozyme self-cleavage, higher mRNA level
- CONDITION_DETAILS: HEK293T, reporter: mCherry (pCS4076), ligand present: no
Listed next: entries and their corresponding normalized RNA/DNA level without ligand (log10).
Just the number, please, no unit attached.

> print(dat)
                              sequence.data  observed.value
1  GCUGUCACCGGUGUAUUACCCUAGUGGUCGACCGGUCUGAUGAGUCUAAUACAAGACGAAACAGC [AAUACA]             1.8

Give its normalized RNA/DNA level without ligand (log10) value. Item: GCUGUCACCGGUGUAUUACCCUAGUGGUCGACCGGUCUGAUGAGUCUAAGCGCAGACGAAACAGC [AAGCGC]
1.6
